# EXPERIMENT NOTES: Re-testing in dose-response curve in HepG2 cytotoxicity assay, at 72h
# Type: toxicity, cell-based, Homo sapiens
# Design: timepoint 72 hour
# ASSAY SETUP: human, HepG2 cells
MEASUREMENT NAME: IC50 at 72 h

compound=CCN1C[C@H](Nc2nc(C)nc3sccc23)[C@@H](OC)C1 assay_value="> 25 µM"
compound=COc1ccc2c(O)c(Br)c(C)nc2c1 assay_value="21.6 µM"
compound=Cc1ccc(-c2cc(C(=O)NC3CCN(C4CCN(C)CC4)CC3)n[nH]2)cc1C assay_value="5.93 µM"
compound=c1ccc2c(CNCCC3CCN(c4ccncc4)CC3)csc2c1 assay_value="4.25 µM"
compound=C[C@@H](CNC1CCN(C2CCN(C)CC2)CC1)c1cccc(Cl)c1 assay_value="9.55 µM"
compound="Brc1ccc2[nH]c3c(c2c1)CCCC3NC1CCc2[nH]cnc2C1 (stereo unspecified)" assay_value="4.1 µM"

* * *

pIC50 by entry:
# Tested on: HepG2
# EXPERIMENT NOTES: Re-testing in dose-response curve in HepG2 cytotoxicity assay, at 72h
# Type: toxicity, cell-based, Homo sapiens
# Set-up: timepoint 72 hour
# ASSAY SETUP: hepg2
pIC50: −log10 of the molar value.
MEASUREMENT NAME: pIC50

compound=CCOc1cc(C(=O)NC2CCN(CC3CCCC3)CC2)cc(-c2ccccc2)c1OC value_relation_sign== assay_value=4.99
compound=CN(C)C1(CNc2nc(C(F)(F)F)nc3cc(F)ccc23)CCCCCC1 value_relation_sign== assay_value=5.03
compound=c1ccc2c(CNCCC3CCN(c4ccncc4)CC3)csc2c1 value_relation_sign== assay_value=5.29
compound=COc1ccc2c(O)c(Br)c(C)nc2c1 value_relation_sign== assay_value=4.66
compound=c1ccc(CNc2ccc(-c3noc(C45CCCN(CCC4)C5)n3)cn2)cc1 value_relation_sign== assay_value=4.70
compound=Fc1ccc(-n2cc(CNCCC3CCN(c4ccncc4)CC3)cn2)cc1 value_relation_sign== assay_value=5.23
compound=Cc1cnccc1NCCNCc1ccc(OC(C)C)c(Cl)c1 value_relation_sign== assay_value=5.16
compound=Cc1ccc(-c2cccc3c(C(=O)NCCCN4CCC(N5CCCCC5)CC4)cc(C)nc23)cc1 value_relation_sign== assay_value=5.46
compound=C[C@@H](CNC1CCN(C2CCN(C)CC2)CC1)c1cccc(Cl)c1 value_relation_sign== assay_value=5.09
compound=CCCc1cccc(CNC2CCN(C3CCN(C)CC3)CC2)c1 value_relation_sign== assay_value=5.10
compound=Cc1c(CN2CCC(O)(Cn3ccnc3)CC2)[nH]c2c(Cl)cccc12 value_relation_sign== assay_value=4.69
compound=CC(C)c1ccc(-c2nc(CN3CCCCC3)cc(CN3CCCCC3)c2O)cc1 value_relation_sign=< assay_value=4.60
compound=Cc1ccc(-c2cc(C(=O)NC3CCN(C4CCN(C)CC4)CC3)n[nH]2)cc1C value_relation_sign== assay_value=5.15
compound="Brc1ccc2[nH]c3c(c2c1)CCCC3NC1CCc2[nH]cnc2C1 (stereo unspecified)" value_relation_sign== assay_value=5.37
compound=O=C(n1nnc2cc(Cl)c(Cl)cc21)C(F)(F)F value_relation_sign== assay_value=4.61
compound=CN1CCC(Oc2ccc(NC(=O)c3cn4ccnc4s3)cn2)CC1 value_relation_sign== assay_value=4.73
